Reference source for all entries: ChEMBL document CHEMBL1201862

Test system: HOP-62
Test: NCI tumour cell line growth inhibition, 48 h
Active and inactive are the calls of the source. Rule as the data show it: active = GI50 up to about 1.1 µM and inactive = higher.
Choose one outcome from this list and give only that: active, inactive

In: Tell me the recorded outcome of this test for COC1C(N)C(OC2C(Oc3cccc4c(O)c5c(=O)oc6ccc(C)c7c(=O)oc(c34)c5c67)OC(C)C(O)C2(C)O)OC(C)C1O (stereo unspecified) .
Out: active

In: Tell me the recorded outcome of this test for Cc1c2c(c(C)n1-c1ccccc1)C(=O)N(CCSC(=N)N)C2=O .
Out: inactive

In: Tell me the recorded outcome of this test for Cn1cc(-c2csc(-c3cn(C)c4ccccc34)n2)c2ccccc21 .
Out: inactive

In: Tell me the recorded outcome of this test for COc1ccc(/N=C(C)/C(C)=N/c2ccc(OC)cc2)cc1 .
Out: inactive

In: Tell me the recorded outcome of this test for Cc1n[nH]c(C(F)(F)F)c1/N=N/N1CCOCC1 .
Out: inactive

In: Tell me the recorded outcome of this test for CC(C)(C)c1cc(OCc2nnc3sc(Cc4ccccc4)nn23)c(Cl)cc1OCc1nnc2sc(Cc3ccccc3)nn12 .
Out: inactive

In: Tell me the recorded outcome of this test for c1ccc([P+](CCN2Cc3ccccc3C2)(c2ccccc2)c2ccccc2)cc1 .
Out: inactive

In: Tell me the recorded outcome of this test for COc1ccc2oc3cccc(NCCN(C)C)c3c(=O)c2c1 .
Out: inactive

In: Tell me the recorded outcome of this test for CCCCCC[C@H]([C@H](C)O)n1cnc2c(N)ncnc21 .
Out: inactive

In: Tell me the recorded outcome of this test for O=C1C=C(Nc2cccnc2)c2ccccc2/C1=N/O .
Out: inactive

In: Tell me the recorded outcome of this test for OC[C@H]1C[C@@H]2Cc3ccccc3N2N1 .
Out: inactive

In: Tell me the recorded outcome of this test for CC(=O)NNc1nc(C)c(C(=O)NNC(=O)C(=O)Nc2ccc([N+](=O)[O-])cc2C#N)s1 .
Out: inactive

In: Tell me the recorded outcome of this test for Cc1cc(=O)n2c3c(c4c(cc13)c(CN(C)C)cc(=O)n4C)OC2 .
Out: inactive

In: Tell me the recorded outcome of this test for COc1ccc(CCn2cncn2)cc1 .
Out: inactive

In: Tell me the recorded outcome of this test for Nc1c(-c2ccc(Cl)c(Cl)c2)c2ccc([N+](=O)[O-])cc2c(=O)n1-c1nc2ccccc2s1 .
Out: active

In: Tell me the recorded outcome of this test for O=c1/c(=C/c2ccccc2[N+](=O)[O-])sc2nnc(-c3ccco3)n12 .
Out: inactive

In: Tell me the recorded outcome of this test for N#Cc1cc2c(cc1C#N)SCCSCCCSCCS2 .
Out: inactive

In: Tell me the recorded outcome of this test for CCOC(=O)c1ccc2nc(NC(=O)COC(=O)CSc3nc(C)cc(C)n3)sc2c1 .
Out: inactive

In: Tell me the recorded outcome of this test for O=C1NC2C(O)CCCCC2C12CCCCC2 (stereo unspecified) .
Out: inactive

In: Tell me the recorded outcome of this test for Cc1c(S(=O)(=O)O)ccc(/N=N/c2c(O)c(C(=O)O)cc3ccccc23)c1Cl .
Out: inactive

In: Tell me the recorded outcome of this test for C=C[C@H]1C=Cc2c(OC)cccc2[C@@H]1COP1(=S)NC(C)C(c2ccccc2)O1 (stereo partly specified) .
Out: inactive

----------
Tested on: HCT-15
I'd be grateful if you could share measured GI50 for these entries.
Use µM as the unit, but write only the number.

FC(F)(F)c1ccccc1C1SCC2=Nc3ccccc3CN21 (centres undefined) yielded GI50 of 14.1

Clc1ncnc2c1nc(C#Cc1ccccc1)n2C1CCCCO1 (centres undefined) yielded GI50 of 1.14

O=c1cc(-c2ccccc2)[nH]c2ccc(N3CCOCC3)cc12 yielded GI50 of 0.0241

C=C1C(=O)OC2CC1CCC1(C)OC1CCC(C)=CCCC2(C)O (centres undefined) yielded GI50 of 1.85

CCCCC1Cc2ccccc2-c2n1c1ccccc1[n+]2C (centres undefined) yielded GI50 of 95.5

CC12CCc3ccccc3C1=Nc1ccccc12 (centres undefined) yielded GI50 of 38.1

Cc1ccc(-c2nc3cc([N+](=O)[O-])ccc3[nH]2)cc1 yielded GI50 of 52.8

CC1CC2C3CCC4=CC(=O)C=CC4(C)C3(F)C(O)CC2(C)C1(O)C(=O)CO.Cc1cc(NS(=O)(=O)c2ccc(/N=N\c3cc(/N=N/c4ccc(S(=O)(=O)Nc5cc(C)nc(C)n5)cc4)c(OC(=O)C(Cl)Cl)c4cccc(NC(=O)C(Cl)Cl)c34)cc2)nc(C)n1 yielded GI50 of 15.6

COc1cc(C(=O)OC2CC(C)=CC[C@@]3(C)CC[C@](O)(C(C)C)C23)ccc1O (some centres undefined) yielded GI50 of 18.6

CCC1CN2CCc3cc(OC)c(OC)cc3C2CC1CC1c2cc(OC)c(OC)cc2CCN1C(=O)C1CCCN1 (centres undefined) yielded GI50 of 31.7

O=[N+]([O-])c1ccc2nc(Cl)n[n+]([O-])c2c1 yielded GI50 of 13.4

O=C1/C(=C\c2ccc([N+](=O)[O-])o2)SC2NC(COc3ccc(Cl)cc3)=NN12 (centres undefined) yielded GI50 of 2.07

O=C1C=C(Nc2cccnc2)c2ccccc2/C1=N/O yielded GI50 of 15.2

O=c1/c(=C/c2ccccc2[N+](=O)[O-])sc2nnc(-c3ccco3)n12 yielded GI50 of 28.2

CCC(=O)O[C@H]1CC[C@H]2[C@@H]3CCC4=C/C(=N/OC(=O)c5cccc6cc7ccccc7nc56)CC[C@]4(C)[C@H]3CC[C@]12C yielded GI50 of 55.7

Cn1cnc([N+](=O)[O-])c1Sc1nc(N)nc2c1ncn2C1OC(CO)C(O)C1O (centres undefined) yielded GI50 of 6.84

COc1cc(C2c3cc4c(cc3OC(NN)C2C)OCO4)cc(OC)c1OC (centres undefined) yielded GI50 of 0.406

----------
I'd be grateful if you could share measured GI50 for these entries.
System: OVCAR-4
Assay: NCI tumour cell line growth inhibition, 48 h
Calls of active or inactive are those of the source. No stated cut-off is given here; in the data, active = GI50 up to about 1.1 µM and inactive = higher.

COC(=O)C(=Cc1cc(OC)ccc1OC)C(=O)OC yielded GI50 of 20.3 µM (inactive)

C=C[C@H]1C=Cc2c(OC)cccc2[C@@H]1COP1(=S)NC(C)C(c2ccccc2)O1 (stereo not given in full) yielded GI50 of > 100 µM (inactive)

O=C1c2ccccc2NC(=O)C2C1C(c1ccccc1)CC2(O)c1ccccc1 (stereo not given) yielded GI50 of 17.7 µM (inactive)

C[C@]12CC[C@H](O)CC1=CC[C@@H]1[C@@H]2CC[C@]2(C)C(=N/O)/C(=C/c3ccc([N+](=O)[O-])cc3)C[C@@H]12 yielded GI50 of 5.33 µM (inactive)

O=C(NCCCl)SCCO yielded GI50 of > 100 µM (inactive)

NNC(=O)C(=O)NN=C(C(Cl)(Cl)CO)C(Cl)(Cl)CO yielded GI50 of > 100 µM (inactive)

COC(=O)CN1SC2(SC13C(C)(C)C(=O)C3(C)C)C(C)(C)C(=O)C2(C)C yielded GI50 of > 100 µM (inactive)

CC(C)(C)c1cc2c3c(c1)c(=O)c1cccc4c(O)c5cccc(c2=O)c5c-3c41 yielded GI50 of > 100 µM (inactive)

CC(=O)OCCOCNC(=S)N/N=C(\C)c1cnccn1 yielded GI50 of > 100 µM (inactive)

CC1=CC(C)C(C)N(CC2=NCCN2)c2ccccc21 (stereo not given) yielded GI50 of > 100 µM (inactive)

----------
System: MOLT-4
Assay: NCI tumour cell line growth inhibition, 48 h
Calls of active or inactive are those of the source. Rule as the data show it: active = GI50 up to about 1.1 µM and inactive = higher.
Choose one outcome from this list and give only that: label 1 = active, label 0 = inactive

In: Tell me the recorded outcome of this test for COc1cc2c(c(OC)c1OC)C(=O)c1c(O)cc(C)c(OC)c1C2=O .
Out: label 0

In: Tell me the recorded outcome of this test for Cn1c2ccccc2c(=O)c2c(O)cc3c(c21)C=CC1(CCCC1)O3 .
Out: label 0

In: Tell me the recorded outcome of this test for CCN(CC)Cc1cc(Nc2c3ccccc3nc3c4ccccc4n(C)c23)ccc1O .
Out: label 0

In: Tell me the recorded outcome of this test for C[C@]12CCC(=O)C=C1CC[C@@H]1C2CC[C@]2(C)Nc3c(cnn3-c3ccccc3)CC12 (stereo partly specified) .
Out: label 0

In: Tell me the recorded outcome of this test for C=C1CC(COc2ccc3c(C)c(C)c(=O)oc3c2C)(c2ccccc2)OC1=O (stereo unspecified) .
Out: label 1

In: Tell me the recorded outcome of this test for O=C1CCC2(c3ccccc3)Nc3ccccc3N12 (stereo unspecified) .
Out: label 0

In: Tell me the recorded outcome of this test for COc1ccc(/C=C(/C#N)C(N)=O)cc1OC .
Out: label 0

In: Tell me the recorded outcome of this test for COc1ccc(OC)c2c(C(=O)O)c(C(C)c3ccccc3)ccc12 (stereo unspecified) .
Out: label 0

In: Tell me the recorded outcome of this test for N=C1c2ccccc2C(=O)c2c(NCCNCCO)ccc(O)c21 .
Out: label 0

In: Tell me the recorded outcome of this test for COC1(OC)CCC2C1C1CCC(OC)(OC)C21 (stereo unspecified) .
Out: label 0

In: Tell me the recorded outcome of this test for C=C(C=O)c1c2c(nc3ccccc13)C(=O)c1ccccc1C2=O .
Out: label 1
